Assay: Biodistribution, PC-3 xenograft mice
Type: in vivo, NOD SCID mice
Conditions: female, NOD SCID, PC-3 tumor, intravenous, total radioactivity; Mouse #3; single tracer; PC-3 xenograft; 4 h p.i.; 1.49 nmol; read-out: Biodistribution: PC-3 Tumor
observable: tissue uptake at 4 h (%ID/g)
Reply numerically in %ID/g, unit not repeated.

tissue uptake at 4 h measured on CC(C)C[C@H](NC(=O)C[C@H](O)[C@H](CC(C)C)NC(=O)[C@H](Cc1c[nH]cn1)NC(=O)CNC(=O)[C@@H](NC(=O)[C@H](C)NC(=O)[C@H](Cc1c[nH]c2ccccc12)NC(=O)[C@H](CCC(N)=O)NC(=O)[C@@H](Cc1ccccc1)NC(=O)CN1CCC(NC(=O)CN2CCN(CC(=O)O)CCN(CC(=O)O)CCN(CC(=O)O)CC2)CC1)C(C)C)C(N)=O [[^111In]In-RM2, metal not drawn] = 2.75

---

Test: Biodistribution, CHO-K1-GRPR + CHO-K1-PSMA dual xenograft mice
Details: female, NOD SCID, mouse, lung, intravenous, 1 nmol, total radioactivity, Biodistribution: Lung, Mouse #8; dual tracer; dual xenograft; 25.8 h p.i.; 1.00 nmol
observable: tissue uptake at 25.8 h (%ID/g)
Reply numerically in %ID/g, unit not repeated.

tissue uptake at 25.8 h measured on CC(C)C[C@H](NC(=O)C[C@H](O)[C@H](CC(C)C)NC(=O)[C@H](Cc1c[nH]cn1)NC(=O)CNC(=O)[C@@H](NC(=O)[C@H](C)NC(=O)[C@H](Cc1c[nH]c2ccccc12)NC(=O)[C@H](CCC(N)=O)NC(=O)[C@@H](Cc1ccccc1)NC(=O)CN1CCC(NC(=O)CN2CCN(CC(=O)O)CCN(CC(=O)O)CCN(CC(=O)O)CC2)CC1)C(C)C)C(N)=O [[^111In]In-RM2, metal not drawn] = 0.04
